- PROTOCOL_DETAILS: Rat PK of amino acid prodrug after IV/PO administration
- Assay type: in vivo
- CONDITION_SET: plasma, 10 mg/kg IV, prodrug itself, read-out: AUC0-∝
OBSERVATION_TYPE: AUC (ng·h/mL)

CHEMICAL_STRUCTURE	RESULT
CCC(=O)/N=C1\[C@H](C)C[C@@]2(C)OC/C(=N/OCc3ccc(-c4nc(NC(=O)[C@@H](N)CC(C)C)cs4)cn3)CO[C@H]([C@H]1C)[C@](C)(O)[C@@H](CC)OC(=O)[C@@](C)(F)C(=O)[C@H](C)[C@H]2O[C@@H]1O[C@H](C)C[C@H](N(C)C)[C@H]1O	210

====

- PROTOCOL_DETAILS: Tissue accumulation of Compound 1 at the site of infection (infected skin tissue)
- CONDITION_SET: mouse, uninfected skin, po, 50 mg/kg

CHEMICAL_STRUCTURE	Cmax
CCC(=O)/N=C1\[C@H](C)C[C@@]2(C)OC/C(=N/OCc3ccc(-c4nc(N)cs4)cn3)CO[C@H]([C@H]1C)[C@](C)(O)[C@@H](CC)OC(=O)[C@@](C)(F)C(=O)[C@H](C)[C@H]2O[C@@H]1O[C@H](C)C[C@H](N(C)C)[C@H]1O	3800 µg/mL

====

- PROTOCOL_DETAILS: Tissue accumulation of Compound 1 at the site of infection (infected skin tissue)
- CONDITION_SET: mouse, infected skin abscess, po, 50 mg/kg

CHEMICAL_STRUCTURE	AUC(0-inf)
CCC(=O)/N=C1\[C@H](C)C[C@@]2(C)OC/C(=N/OCc3ccc(-c4nc(N)cs4)cn3)CO[C@H]([C@H]1C)[C@](C)(O)[C@@H](CC)OC(=O)[C@@](C)(F)C(=O)[C@H](C)[C@H]2O[C@@H]1O[C@H](C)C[C@H](N(C)C)[C@H]1O	617000 µg·h/mL

====

# MIC H. influenzae 33929 annotations
- System: H. influenzae
- PROTOCOL_DETAILS: MIC by micro-dilution method, H. influenzae isolates
- Type: cell-based, Haemophilus influenzae
- CONDITION_SET: H. influenzae isolate 33929; examples of U.S. Pat. No. 6,878,691 for reference
- Description: Susceptibility tests can be used to quantitatively measure the in vitro activity of an antimicrobial agent against a given bacterial isolate. Compounds are tested for in vitro antibacterial activity by a micro-dilution method. Minimal Inhibitory Concentration (MIC) is determined in 96 well microtiter plates utilizing the appropriate broth medium for the observed bacterial isolates. […]

MOLECULE	SUBJECT_OF_TEST	MIC H. influenzae 33929
CC[C@H]1OC(=O)[C@@](C)(F)C(=O)[C@H](C)[C@@H](O[C@@H]2O[C@H](C)C[C@H](N(C)C)[C@H]2O)[C@@]2(C)C[C@@H](C)C(=NC(C)=O)[C@H](C)[C@@H](OC/C(=N\OCc3ccc(-c4csnn4)cc3)CO2)[C@]1(C)O [Compound 219, reference compound]	H. influenzae	4 mg/L
CC[C@H]1OC(=O)[C@H](C)C(=O)[C@H](C)[C@@H](O[C@@H]2O[C@H](C)C[C@H](N(C)C)[C@H]2O)[C@@]2(C)C[C@@H](C)C(=NC(C)=O)[C@H](C)[C@@H](OC/C(=N\OCc3ccc(-c4cccs4)nc3)CO2)[C@]1(C)O [Compound 205, reference compound]	H. influenzae	4 mg/L
CC[C@H]1OC(=O)[C@H](C)C(=O)[C@H](C)[C@@H](O[C@@H]2O[C@H](C)C[C@H](N(C)C)[C@H]2O)[C@@]2(C)C[C@@H](C)C(=NC(C)=O)[C@H](C)[C@@H](OC/C(=N\OCc3ccc(-c4cccc(N)n4)nc3)CO2)[C@]1(C)O [Compound 227, reference compound]	H. influenzae	4 mg/L
CC[C@H]1OC(=O)[C@H](C)C(=O)[C@H](C)[C@@H](O[C@@H]2O[C@H](C)C[C@H](N(C)C)[C@H]2O)[C@@]2(C)C[C@@H](C)C(=NC(C)=O)[C@H](C)[C@@H](OC/C(=N\OCc3cnc(-n4cccn4)c(F)c3)CO2)[C@]1(C)O [Compound 259, reference compound]	H. influenzae	8 mg/L

====

- PROTOCOL_DETAILS: Tissue accumulation of Compound 1 at the site of infection (infected skin tissue)
- CONDITION_SET: mouse, plasma, po, 50 mg/kg

COMPOUND	AUC(0-t) (µg·h/mL)
CCC(=O)/N=C1\[C@H](C)C[C@@]2(C)OC/C(=N/OCc3ccc(-c4nc(N)cs4)cn3)CO[C@H]([C@H]1C)[C@](C)(O)[C@@H](CC)OC(=O)[C@@](C)(F)C(=O)[C@H](C)[C@H]2O[C@@H]1O[C@H](C)C[C@H](N(C)C)[C@H]1O [Compound 1]	24400

====

- PROTOCOL_DETAILS: Tissue accumulation of Compound 1 at the site of infection (infected skin tissue)
- CONDITION_SET: mouse, uninfected skin, po, 50 mg/kg

CHEMICAL_STRUCTURE	MEASUREMENT_UNIT	AUC(0-inf)
CCC(=O)/N=C1\[C@H](C)C[C@@]2(C)OC/C(=N/OCc3ccc(-c4nc(N)cs4)cn3)CO[C@H]([C@H]1C)[C@](C)(O)[C@@H](CC)OC(=O)[C@@](C)(F)C(=O)[C@H](C)[C@H]2O[C@@H]1O[C@H](C)C[C@H](N(C)C)[C@H]1O	µg·h/mL	66600

====

- Test system: H. influenzae
- PROTOCOL_DETAILS: MIC by micro-dilution method, H. influenzae isolates
- Assay type: cell-based, Haemophilus influenzae
- CONDITION_SET: H. influenzae isolate 33929; examples of U.S. Pat. No. 6,878,691 for reference
# MIC H. influenzae 33929 annotations

MOLECULE	MIC H. influenzae 33929, µg/mL
CC[C@H]1OC(=O)[C@@](C)(F)C(=O)[C@H](C)[C@@H](O[C@@H]2O[C@H](C)C[C@H](N(C)C)[C@H]2O)[C@@]2(C)C[C@@H](C)C(=NC(C)=O)[C@H](C)[C@@H](OC/C(=N\OCc3ccc(-n4cccn4)nc3)CO2)[C@]1(C)O [Compound 214, reference compound]	4
CC[C@H]1OC(=O)[C@H](C)C(=O)[C@H](C)[C@@H](O[C@@H]2O[C@H](C)C[C@H](N(C)C)[C@H]2O)[C@@]2(C)C[C@@H](C)C(=NC(C)=O)[C@H](C)[C@@H](OC/C(=N\OCc3ccc(-c4nccs4)nc3)CO2)[C@]1(C)O [Compound 212, reference compound]	4
CC[C@H]1OC(=O)[C@@](C)(F)C(=O)[C@H](C)[C@@H](O[C@@H]2O[C@H](C)C[C@H](N(C)C)[C@H]2O)[C@@]2(C)C[C@@H](C)C(=NC(C)=O)[C@H](C)[C@@H](OC/C(=N\OCc3ccc(-c4cnccn4)s3)CO2)[C@]1(C)O [Compound 141, reference compound]	8
CC[C@H]1OC(=O)[C@H](C)C(=O)[C@H](C)[C@@H](O[C@@H]2O[C@H](C)C[C@H](N(C)C)[C@H]2O)[C@@]2(C)C[C@@H](C)C(=NC(C)=O)[C@H](C)[C@@H](OC/C(=N\OCc3ccc(-c4ncccn4)cc3)CO2)[C@]1(C)O [Compound 193, reference compound]	8

====

- PROTOCOL_DETAILS: Tissue accumulation of Compound 1 at the site of infection (infected skin tissue)
- CONDITION_SET: mouse, plasma, po, 50 mg/kg
OBSERVATION_TYPE: AUC(0-inf) (µg·h/mL)

COMPOUND	RESULT
CCC(=O)/N=C1\[C@H](C)C[C@@]2(C)OC/C(=N/OCc3ccc(-c4nc(N)cs4)cn3)CO[C@H]([C@H]1C)[C@](C)(O)[C@@H](CC)OC(=O)[C@@](C)(F)C(=O)[C@H](C)[C@H]2O[C@@H]1O[C@H](C)C[C@H](N(C)C)[C@H]1O [Compound 1]	24500
